Source: patent US20230235048A1

Examples of binders with documented % Blocking at 7.4nM mAb follow.
TARGET OR SYSTEM: T1, extracellular domain (ECD) of recombinant human Sortilin with a C-terminal HIS tag (ECD-huSortilin-HIS) (human, UniProt Q99523 78-755)
T1 construct: Bought (R&D Systems); also called human sortilin-ECD; not shown: C-terminal HIS tag
T1 sequence: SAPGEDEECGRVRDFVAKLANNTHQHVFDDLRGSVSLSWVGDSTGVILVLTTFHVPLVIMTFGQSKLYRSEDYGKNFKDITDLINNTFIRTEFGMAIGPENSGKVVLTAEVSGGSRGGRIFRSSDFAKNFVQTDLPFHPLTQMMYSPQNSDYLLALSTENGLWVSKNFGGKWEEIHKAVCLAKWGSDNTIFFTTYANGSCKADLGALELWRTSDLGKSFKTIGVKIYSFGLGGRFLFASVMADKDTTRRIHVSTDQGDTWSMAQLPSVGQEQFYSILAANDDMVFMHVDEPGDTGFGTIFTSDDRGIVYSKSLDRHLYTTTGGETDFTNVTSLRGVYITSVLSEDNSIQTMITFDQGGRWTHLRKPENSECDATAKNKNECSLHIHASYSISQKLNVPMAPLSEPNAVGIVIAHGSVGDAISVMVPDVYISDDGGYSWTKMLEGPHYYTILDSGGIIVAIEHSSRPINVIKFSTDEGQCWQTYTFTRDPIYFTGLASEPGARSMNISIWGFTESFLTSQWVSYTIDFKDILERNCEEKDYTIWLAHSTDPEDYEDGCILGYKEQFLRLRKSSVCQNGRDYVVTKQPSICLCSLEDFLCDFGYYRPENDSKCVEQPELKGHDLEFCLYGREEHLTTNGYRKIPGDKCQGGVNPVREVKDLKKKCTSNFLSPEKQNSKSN
PROTOCOL SUMMARY: blocking ELISA, coated ECD-huSortilin-HIS; blocked ligand huPGRN-Biotin
Hi! Could you send only the number? It should be in %, unit omitted.

mouse monoclonal antibody 6B15 (antibody, mouse IgG1, V domains shown, mouse IgG1, kappa) VH: EVQLVESGGDLVKPGGSLKLSCAAPGFTFSTYGMSWVRQTPDKRLEWVAIISSGGSYTYYSDTVKGRFTISRDNAKNTLNLQMSSLKSEDTAMYFCSRSSSHWYFDVWGTGTTVTVSS VL: DILMTQFPSSMSVSLGDTVSITCHASQGISSNIGWLQQKPGKSFKGLIYHGTNLKDGVPSRFSGSGSGTDFSLTISSLESEDFADYYCVQYAQFPYTFGGGTKLEKR = 51

Query block: Look up % Blocking at 7.4nM mAb for this binder: mouse monoclonal antibody 2F18 (antibody, mouse IgG1, V domains shown, mouse IgG1, kappa) VH: EVQLVESGGDLVKPGGSLKLSCAASGFTFNIYGMSWVRQTPDKRLEWVATISTGGIYTYYPDSVKGRFTISRDNAKNTLYLQMSSLKSEDTAMYYCARHPVGALDYWGQGTSVTVSS VL: DIQVTQSPASLSVSVGETVTITCRASENIYSNLAWYQQKQGKSPHLLVYTATTLADGVPSRFSGSGSGTQYSLKINSLQSEDFGSYYCQHFWGTPPWTFGGGTKLEIK
Result block: 76
